Tested on: SNB-75 CNS
method-description: NCI-60 one-dose screen, 48 h (100 = growth as untreated, 0 = no growth, -100 = all killed)
experimental-context: 10 µM unless noted
The panel holds about 83,000 compounds, 20% with a hit somewhere; the sample as a whole holds those more often.
# growth values compiled below
reported-metric: growth (%)

[[record]]
compound = "COc1ccc(/C(=C\\c2ccc3c(c2)OCO3)C(=O)Nc2nc3ccc(F)cc3s2)cc1OC"
tested_target = "SNB-75 CNS"
assay_result = 90.9

[[record]]
compound = "CC(C)CC(NC(=O)OCC1c2ccccc2-c2ccccc21)C(=O)O (stereo not drawn)"
tested_target = "SNB-75 CNS"
assay_result = 90.3

[[record]]
compound = "Cc1cc(C)c2c(n1)sc1c(Nc3ccc(Cl)cc3Cl)ncnc12"
tested_target = "SNB-75 CNS"
assay_result = 39.7

